src = patent US10874743B2

# Assay Notes: Pharmacokinetics in Sprague Dawley rats (plasma and brain concentrations, PK parameters)
# Type: in vivo
# Condition Details: Sprague Dawley, rat, plasma, iv, 3 mg/kg, Sprague Dawley rat, iv 3 mg/kg, mean of 3 rats; read-out: C0 Mean
# Description: Pharmacokinetics for I-127, I-172 and I-210 were determined in Sprague Dawley rats or CD-1 mice by dosing intravenous (IV), subcutaneous (SC) or per oral (PO) using facility SOPs and sampling plasma at required time points. […] Compounds were extracted from plasma, injected on reverse phase HPLC, eluted with a gradient from 5% to 95% acetonitrile in water and quantified by mass spectrometry with internal standard. […]
Assay Endpoint: C0 (ng/mL)
Your answer is read as ng/mL, so omit the unit and give the number.

Enquiry: # query: C0 of entry O=C1CCC(N2C(=O)c3cccc(NCCOCCOCCNCc4ccc(-n5cc(NC(=O)c6coc(-c7ccnc(NCC8CC8)c7)n6)c(C(F)F)n5)cc4)c3C2=O)C(=O)N1 (stereo not shown) [I-210]
Return: 848
